Reported values of hERG current change (%, negative = inhibition) at 10uM for individual entries
- test_target: human ether-à-go-go-related gene (hERG) potassium channel (human);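 also: peak tail current of the secondary pulse compared with the same well before compound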
- Sequence (Q12809 whole entry, looked up): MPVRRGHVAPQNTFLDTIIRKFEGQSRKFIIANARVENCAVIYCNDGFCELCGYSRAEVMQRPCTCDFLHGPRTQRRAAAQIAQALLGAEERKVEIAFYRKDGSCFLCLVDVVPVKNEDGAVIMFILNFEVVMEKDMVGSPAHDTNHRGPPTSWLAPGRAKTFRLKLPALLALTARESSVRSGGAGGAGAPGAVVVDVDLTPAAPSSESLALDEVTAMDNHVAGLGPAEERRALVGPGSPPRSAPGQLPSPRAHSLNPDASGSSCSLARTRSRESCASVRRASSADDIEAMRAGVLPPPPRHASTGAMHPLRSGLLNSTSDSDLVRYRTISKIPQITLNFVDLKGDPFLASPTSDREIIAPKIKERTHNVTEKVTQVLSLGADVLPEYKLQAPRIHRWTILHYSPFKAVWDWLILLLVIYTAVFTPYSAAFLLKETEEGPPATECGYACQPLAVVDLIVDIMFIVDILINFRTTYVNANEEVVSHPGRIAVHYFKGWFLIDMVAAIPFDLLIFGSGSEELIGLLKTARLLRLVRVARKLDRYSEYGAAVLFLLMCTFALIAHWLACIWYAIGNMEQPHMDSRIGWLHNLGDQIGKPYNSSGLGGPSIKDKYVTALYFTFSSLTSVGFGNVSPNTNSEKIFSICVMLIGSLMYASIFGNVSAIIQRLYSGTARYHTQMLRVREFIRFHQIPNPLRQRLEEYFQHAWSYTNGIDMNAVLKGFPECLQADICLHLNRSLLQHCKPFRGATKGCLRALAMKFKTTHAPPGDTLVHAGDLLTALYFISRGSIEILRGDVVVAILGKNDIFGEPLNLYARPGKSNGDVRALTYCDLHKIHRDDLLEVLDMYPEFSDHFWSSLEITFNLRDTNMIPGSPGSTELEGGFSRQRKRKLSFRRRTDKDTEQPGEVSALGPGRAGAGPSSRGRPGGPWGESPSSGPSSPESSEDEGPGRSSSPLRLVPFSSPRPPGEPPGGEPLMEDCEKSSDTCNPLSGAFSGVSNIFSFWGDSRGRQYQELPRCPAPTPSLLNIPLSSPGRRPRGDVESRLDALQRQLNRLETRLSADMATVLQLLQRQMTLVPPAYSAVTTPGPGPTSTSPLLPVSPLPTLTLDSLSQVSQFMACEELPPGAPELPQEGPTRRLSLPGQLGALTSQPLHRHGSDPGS
- assay: primary screen, population patch clamp on CHO cells stably expressing hERG; higher = less effect of the substance
The whole screen tested about 310,000 compounds, of which about 14,000 (4.5%) showed an effect of 50% or more. Effects have a minus sign here. The sample as a whole holds a higher share of strong results than the screen did.
Your answer should be a plain number; it is taken to be in %.

>>> print(df.to_string())
                               smiles_entry  unit_of_measurement  measured_result
0  COC(=O)c1ccc(C(=O)OC)c(NC(=O)CCS(=O)(=O)Cc2ccccc2)c1                    %            -2.41
1  COc1cc2c(C(=O)N3CCN(C4CCCCC4)CC3)cn(CC(C)C)c(=O)c2cc1OC                    %            -63.3

Asked: For the molecule shown here, CCOc1ccc(NC(=O)CSc2n[nH]c(N)n2)c([N+](=O)[O-])c1 , give the reported hERG current change (%, negative = inhibition) at 10uM.
Given back: -6.62

Asked: For the molecule shown here, O=C(NCCN1CCCCC1)Nc1ccc(F)c(Cl)c1 , give the reported hERG current change (%, negative = inhibition) at 10uM.
Given back: -33.9

Asked: For the molecule shown here, Cc1cc(Cl)ccc1OCC(=O)Nc1nc(-c2cccs2)cs1 , give the reported hERG current change (%, negative = inhibition) at 10uM.
Given back: 15.6

Asked: For the molecule shown here, COC(=O)c1ccc(C(=O)OC)c(NC(=O)C2CC2)c1 , give the reported hERG current change (%, negative = inhibition) at 10uM.
Given back: -68.9

Asked: For the molecule shown here, COC(=O)c1ccc(C(=O)OC)c(NC(=O)C(C)(C)C)c1 , give the reported hERG current change (%, negative = inhibition) at 10uM.
Given back: 20.7
